# Tested on: A549
# method-description: NCI tumour cell line growth inhibition, 48 h
Active and inactive are the calls of the source. Cut-off read from the data, not from the text of the source: active = GI50 up to about 1.1 µM and inactive = higher.
assay-metric: GI50

# molecule, study-target, assay-metric, value-measured
rows = [
    ("O=S(=O)(c1ccccc1)C1CN(Cc2ccccc2)CCN(Cc2ccccc2)C1", "A549", "GI50", "39.7 µM (inactive)"),
    ("NNC(=O)c1c(Cl)c(Cl)c(Cl)c(Cl)c1-c1nc2ccccc2[nH]1", "A549", "GI50", "10 µM (inactive)"),
    ("COc1ccc(/C=C/C(=O)c2sc(-n3nc(-c4ccccc4)cc3-c3ccccc3)nc2C)cc1OC", "A549", "GI50", "39.4 µM (inactive)"),
    ("COc1ccccc1NC(=O)C1=C(C)NC(C)=C(C(=O)Nc2ccccc2OC)C1c1ccc(N(C)C)cc1", "A549", "GI50", "42.6 µM (inactive)"),
    ("N#CC(C(=O)/C(=N\\NC(N)=O)C(C#N)c1ccccc1)c1ccccc1 (stereo unspecified)", "A549", "GI50", "> 100 µM (inactive)"),
    ("CC1(C)CC(=O)C2=C(C1)OC1=C(CC(C)(C)CC1=O)C2c1ccccc1Cl (stereo unspecified)", "A549", "GI50", "> 100 µM (inactive)"),
    ("Cc1ccc(NC(=O)C(=O)C(C(=O)/C=C/c2ccccc2)C2OC(=O)c3ccccc32)c(C)c1 (stereo unspecified)", "A549", "GI50", "> 100 µM (inactive)"),
    ("COc1cc(O)c(C(C)=O)c(O)c1", "A549", "GI50", "> 100 µM (inactive)"),
    ("COc1ccc(-c2nc(O)c3ccccc3n2)cc1OC", "A549", "GI50", "94.4 µM (inactive)"),
    ("O=C(CCSC1=NCCCN1)c1ccc(F)cc1", "A549", "GI50", "20.4 µM (inactive)"),
    ("CC1(C)[C@@H](Cn2cc(I)c(=O)[nH]c2=O)CC[C@@]1(C)CO", "A549", "GI50", "> 100 µM (inactive)"),
    ("CCCCCCCCCCCCCCCCS(=O)(=O)c1ccc(NN)cc1", "A549", "GI50", "5.27 µM (inactive)"),
    ("O=c1c2ccccc2oc2c1ccc1ncccc12", "A549", "GI50", "5.4 µM (inactive)"),
    ("CCCCCCCCCCCCCC(=O)OCC1OC(OC)C(NC(=O)N(CCCl)N=O)C(O)C1O (stereo unspecified)", "A549", "GI50", "15.6 µM (inactive)"),
    ("CC(C)(C)c1cc(COc2cc(COc3ccc(-c4c5c(nc6c4CCc4ccc(-c7c8ccccc8nc8ccccc78)cc4-6)-c4cc(-c6c7ccccc7nc7ccccc67)ccc4CC5)cc3)cc(OCc3cc(C(C)(C)C)cc(C(C)(C)C)c3)c2)cc(C(C)(C)C)c1", "A549", "GI50", "> 100 µM (inactive)"),
    ("CSc1nc2c3ccccc3ccn2c1C(=O)N/N=C/c1ccccc1", "A549", "GI50", "56.9 µM (inactive)"),
    ("NC1=NCCN1CC(=O)O", "A549", "GI50", "> 1000 µM (inactive)"),
    ("C/C1=N\\[N-]C(=O)c2ccccc2C(=O)N/N=C(\\C)c2cccc1n2.O=[N+]([O-])[O-].[Zn+2]", "A549", "GI50", "> 100 µM (inactive)"),
    ("CCOC(=O)C1=C(OC(OCC)C(C)[Se]c2ccccc2)CCC1 (stereo unspecified)", "A549", "GI50", "49.9 µM (inactive)"),
    ("COc1cc2c(cc1OC)C1Cc3ccccc3CCN1CC2 (stereo unspecified)", "A549", "GI50", "> 100 µM (inactive)"),
    ("O=C1C(Cl)=C(N2CCC[C@@H]2CO)C(=O)c2c(O)ccc(O)c21", "A549", "GI50", "2.08 µM (inactive)"),
]

The measured values listed here are drawn from ChEMBL document CHEMBL1201862.
